Please respond with reported pKi for every item in the list.
# assay target: DA-1 receptors (Rattus norvegicus)
# Construct: striatum for DA-1 and DA-2 receptors
# Sequence (P18901 whole entry): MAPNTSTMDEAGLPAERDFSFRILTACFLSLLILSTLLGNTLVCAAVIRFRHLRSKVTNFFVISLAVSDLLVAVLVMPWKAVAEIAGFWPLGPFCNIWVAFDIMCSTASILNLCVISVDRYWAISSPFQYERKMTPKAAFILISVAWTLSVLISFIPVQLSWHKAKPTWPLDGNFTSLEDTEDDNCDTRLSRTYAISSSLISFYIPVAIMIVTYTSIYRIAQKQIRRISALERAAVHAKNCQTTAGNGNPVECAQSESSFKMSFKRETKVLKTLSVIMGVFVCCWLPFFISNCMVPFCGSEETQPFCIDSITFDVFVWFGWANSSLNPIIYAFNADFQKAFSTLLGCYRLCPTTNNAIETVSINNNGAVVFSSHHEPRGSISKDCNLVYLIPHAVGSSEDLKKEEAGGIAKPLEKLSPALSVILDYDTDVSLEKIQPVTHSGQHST
# assay comment: [3H]SCH 23390 binding to DA-1 receptors (rat striatum)
# run conditions: [3H]SCH 23390, average ± standard error, read-out: D1 affinity Ki
Answers are plain numbers, as −log10 of the molar value.

compound	assay target	pKi
CN1CCN([C@H]2Cc3ccccc3Sc3ccc(Cl)cc32)CC1 [S-(+)-Octoclothepin]	DA-1 receptors (Rattus norvegicus)	8.71
CN1CCN(C2Cc3ccccc3Sc3ccc(Cl)cc32)CC1 (stereo not drawn) [RS-Octoclothepin]	DA-1 receptors (Rattus norvegicus)	8.64

State the recorded pKi for this entry: CN1CCN([C@@H]2Cc3ccccc3Sc3ccc(Cl)cc32)CC1 [R-(−)-Octoclothepin]
8.69
